System: U138MG cells
Assay: cells
Settings: Homo sapiens, U138-MG, 168 h, read-out: CF (colony formation in soft agar) IC50
Readout kind: IC50
Answer with the number, then the unit.

Form field: IC50 recorded for Oc1cc(CNC(=S)/C=C/c2ccc(O)c(O)c2Br)cc(O)c1O with U138MG cells (enter value)
2600 nM
